Data origin: paper PMC11510214

# target_system: acetylcholinesterase (AChE) (Homo sapiens, UniProt P22303);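 further: Kit-based enzyme assay using enzymes of human origin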
# Sequence (P22303 32-614): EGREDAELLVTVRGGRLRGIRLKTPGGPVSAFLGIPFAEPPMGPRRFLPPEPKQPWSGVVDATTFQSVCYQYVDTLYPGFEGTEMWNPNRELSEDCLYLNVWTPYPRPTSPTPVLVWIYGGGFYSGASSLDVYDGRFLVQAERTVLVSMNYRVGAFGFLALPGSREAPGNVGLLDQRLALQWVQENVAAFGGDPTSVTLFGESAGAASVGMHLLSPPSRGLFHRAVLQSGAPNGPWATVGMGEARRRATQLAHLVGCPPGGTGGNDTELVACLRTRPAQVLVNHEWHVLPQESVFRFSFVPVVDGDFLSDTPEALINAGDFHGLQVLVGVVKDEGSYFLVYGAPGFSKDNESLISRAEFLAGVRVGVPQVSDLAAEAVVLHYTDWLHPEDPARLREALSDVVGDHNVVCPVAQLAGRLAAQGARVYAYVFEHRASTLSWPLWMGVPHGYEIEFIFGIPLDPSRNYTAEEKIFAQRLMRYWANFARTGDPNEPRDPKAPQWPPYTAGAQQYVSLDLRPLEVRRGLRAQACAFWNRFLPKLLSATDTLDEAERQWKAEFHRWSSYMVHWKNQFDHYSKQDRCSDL
# procedure_details: biochemical
# experimental_setup: read-out: % inhibition AChE
experimental_readout: inhibition at 100 µM

INSERT INTO measurements (compound, experimental_readout, result) VALUES
  ('CC(=O)OC[C@H]1O[C@@H](n2cc(CSc3ccc(-c4ccccn4)nn3)nn2)[C@H](OC(C)=O)[C@@H]1OC(C)=O [Compound 6]', 'inhibition at 100 µM', '88%'),
  ('NCCn1cc(CSc2ccc(-c3ccccn3)nn2)nn1 [Compound 11]', 'inhibition at 100 µM', '90%'),
  ('OCCOCCn1cc(CSc2ccc(-c3ccccn3)nn2)nn1 [Compound 9]', 'inhibition at 100 µM', '92%'),
  ('OCCn1cc(CSc2ccc(-c3ccccn3)nn2)nn1 [Compound 10]', 'inhibition at 100 µM', '90%'),
  ('C#CCSc1ccc(-c2ccccn2)nn1 [Compound 1]', 'inhibition at 100 µM', '89%'),
  ('CC(=O)OCC1OC(n2cc(CSc3ccc(-c4ccccn4)nn3)nn2)C(OC(C)=O)C(OC(C)=O)C1OC(C)=O (stereo not shown) [Compound 3]', 'inhibition at 100 µM', '88%'),
  ('OC[C@H]1O[C@@H](n2cc(CSc3ccc(-c4ccccn4)nn3)nn2)[C@H](O)[C@@H](O)[C@@H]1O [Compound 7]', 'inhibition at 100 µM', '92%');

----------
# Lookup of reported inhibition at 100 µM keyed by entry
# target_system: butyrylcholinesterase (BuChE) (Homo sapiens, UniProt P06276)
# Sequence (P06276 29-602): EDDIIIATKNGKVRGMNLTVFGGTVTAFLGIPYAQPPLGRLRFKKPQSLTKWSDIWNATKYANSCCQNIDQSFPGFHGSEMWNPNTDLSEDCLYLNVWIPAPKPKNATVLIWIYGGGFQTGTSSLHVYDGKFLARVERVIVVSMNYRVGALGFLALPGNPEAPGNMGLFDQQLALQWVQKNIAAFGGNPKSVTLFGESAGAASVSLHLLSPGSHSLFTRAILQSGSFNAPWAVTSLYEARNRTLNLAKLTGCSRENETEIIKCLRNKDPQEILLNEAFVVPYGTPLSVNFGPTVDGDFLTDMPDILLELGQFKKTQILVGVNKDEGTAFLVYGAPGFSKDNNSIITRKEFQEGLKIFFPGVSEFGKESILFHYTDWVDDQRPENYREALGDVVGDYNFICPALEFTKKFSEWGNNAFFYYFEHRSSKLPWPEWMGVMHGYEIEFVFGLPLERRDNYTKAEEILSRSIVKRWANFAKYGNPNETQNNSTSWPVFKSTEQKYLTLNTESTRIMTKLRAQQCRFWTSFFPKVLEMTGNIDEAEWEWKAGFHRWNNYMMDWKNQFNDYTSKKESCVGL
# procedure_details: biochemical
# experimental_setup: read-out: % inhibition BuChE
experimental_readout: inhibition at 100 µM

INSERT INTO results (compound, target_system, result) VALUES
  ('OC[C@H]1O[C@@H](n2cc(CSc3ccc(-c4ccccn4)nn3)nn2)[C@H](O)[C@@H](O)[C@@H]1O', 'butyrylcholinesterase (BuChE) (Homo sapiens, UniProt P06276)', '79%'),
  ('CCN(C)C(=O)Oc1cccc([C@H](C)N(C)C)c1 [Rivastigmine, rivastigmine, reference compound]', 'butyrylcholinesterase (BuChE) (Homo sapiens, UniProt P06276)', '80%'),
  ('OCCn1cc(CSc2ccc(-c3ccccn3)nn2)nn1', 'butyrylcholinesterase (BuChE) (Homo sapiens, UniProt P06276)', '78%'),
  ('OC[C@H]1O[C@@H](n2cc(CSc3ccc(-c4ccccn4)nn3)nn2)[C@H](O)[C@@H]1O', 'butyrylcholinesterase (BuChE) (Homo sapiens, UniProt P06276)', '82%');
